The reported measurements were obtained from paper PMC8809517.

Experimental system: T1, GFP-9S library array, motif 4 ND N98A;D124P (synthetic construct, N98A;D124P)
T1 chain: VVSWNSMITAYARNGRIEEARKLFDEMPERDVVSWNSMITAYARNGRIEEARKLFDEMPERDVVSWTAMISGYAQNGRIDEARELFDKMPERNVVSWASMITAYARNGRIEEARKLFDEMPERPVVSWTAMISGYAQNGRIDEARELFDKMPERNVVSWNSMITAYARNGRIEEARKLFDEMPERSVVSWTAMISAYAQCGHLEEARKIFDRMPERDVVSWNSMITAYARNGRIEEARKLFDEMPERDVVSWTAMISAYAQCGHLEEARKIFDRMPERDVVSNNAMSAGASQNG
Assay procedure: high-throughput RNA pulldown from lysate on Ni-NTA beads; HRP: 50 mM Tris pH 8, 150 mM NaCl, 1 mM beta-mercaptoethanol, 50 ug/ml BSA, 3 ug/ml yeast RNA, 0.5% heparin; ITC and FP: Tris pH 8, 200 mM KCl, 5% glycerol; MST: 50 mM Tris pH 8, 200 mM NaCl, 1 mM DTT, BSA, heparin, 0.05% Tween 20
Experimental context: tags: N-terminal His-eGFP; label: 5' Cy5
Property name: Kd (nM)

In [3]: df
Out[3]:
                             binder  property_name  readout_unit  measured
0  AUUAGACGUGA (ssRNA) [Cy5-rpoA-G]             Kd            nM       115
1    AUUACACGUGA (ssRNA) [Cy5-rpoA]             Kd            nM       138
